# System: barnyardgrass (Echinochloa crus-galli)
# MEASUREMENT NOTES: Test A postemergence, visual plant response rating
# Format: in vivo
# MEASUREMENT SETUP: Postemergence, 125 g ai/ha; 0 to 100 scale (0 no effect, 100 complete control)
PARAMETER: Barnyardgrass plant response rating

compound=CO/N=C(\c1cc(C)ccc1C)c1c(O)c(C)nn(C)c1=O parameter="Barnyardgrass plant response rating" reported_measurement=10
compound=CO/N=C(/c1c(O)c(C)nn(C)c1=O)c1ccc(OC)c2ccccc12 parameter="Barnyardgrass plant response rating" reported_measurement=10
compound=CO/N=C(/c1cccc(C)c1C)c1c(O)c(C)nn(C)c1=O parameter="Barnyardgrass plant response rating" reported_measurement=0
compound=CO/N=C(\c1c(O)c(C)nn(C)c1=O)c1cc(Br)cc2ccccc12 parameter="Barnyardgrass plant response rating" reported_measurement=80
compound="CON=C(c1c(O)c(C)nn(C)c1=O)c1cccc2cc(Br)ccc12 [Compound 96]" parameter="Barnyardgrass plant response rating" reported_measurement=20
compound=CCO/N=C(/c1c(O)c(C)nn(C)c1=O)c1ccc(F)c2ccccc12 parameter="Barnyardgrass plant response rating" reported_measurement=60
compound=CON=C(c1cc(Cl)ccc1Cl)c1c(O)c(C)nn(C)c1=O parameter="Barnyardgrass plant response rating" reported_measurement=50
compound=Cc1nn(C)c(=O)c(/C(=N/OC(C)C)c2ccc(F)c3ccccc23)c1O parameter="Barnyardgrass plant response rating" reported_measurement=50
compound=CON=C(c1cccc(C(F)(F)F)c1)c1c(O)c(C)nn(C)c1=O parameter="Barnyardgrass plant response rating" reported_measurement=0
compound="CCn1nc(C)c(O)c(C(=NOC)c2cccc(Cl)c2)c1=O (mixture of isomers)" parameter="Barnyardgrass plant response rating" reported_measurement=0
compound=CO/N=C(/c1cc(C)ccc1C)c1c(O)c(C)nn(C)c1=O parameter="Barnyardgrass plant response rating" reported_measurement=20
compound="CON=C(c1c(O)c(C)nn(C)c1=O)c1cccc2sccc12 [Compound 59]" parameter="Barnyardgrass plant response rating" reported_measurement=30
compound=CON=C(c1c(O)c(C)nn(C)c1=O)c1cccc2ccc(Cl)cc12 parameter="Barnyardgrass plant response rating" reported_measurement=50
compound=CCc1cccc(C(=NOC)c2c(O)c(C)nn(C)c2=O)c1 parameter="Barnyardgrass plant response rating" reported_measurement=0
compound=CCc1cccc(/C(=N\OC)c2c(O)c(C)nn(C)c2=O)c1 parameter="Barnyardgrass plant response rating" reported_measurement=0
compound="CON=C(c1ccccc1Cl)c1c(O)c(C)nn(C)c1=O (stereo in doubt)" parameter="Barnyardgrass plant response rating" reported_measurement=0
compound=CON=C(c1cc(C(F)(F)F)ccc1Cl)c1c(O)c(C)nn(C)c1=O parameter="Barnyardgrass plant response rating" reported_measurement=20
compound="CON=C(c1c(O)c(C)nn(C)c1=O)c1cccc2ccsc12 (single isomer, unassigned)" parameter="Barnyardgrass plant response rating" reported_measurement=30
compound=CCO/N=C(/c1c(O)c(C)nn(C)c1=O)c1cccc2ccccc12 parameter="Barnyardgrass plant response rating" reported_measurement=40
compound=CON=C(c1cc(Cl)ccc1C)c1c(O)c(C)nn(C)c1=O parameter="Barnyardgrass plant response rating" reported_measurement=30
compound=CO/N=C(\c1c(O)c(Cl)nn(C)c1=O)c1cccc2ccccc12 parameter="Barnyardgrass plant response rating" reported_measurement=30

----------
Barnyardgrass plant response rating (0 to 100 scale) for assorted molecules
# Tested on: barnyardgrass (Echinochloa crus-galli)
# MEASUREMENT NOTES: Test A preemergence, visual plant response rating
# Assay type: in vivo
# MEASUREMENT SETUP: 500 g ai/ha Preemergence; approx. 10 days
PARAMETER: Barnyardgrass plant response rating (0 to 100 scale)

molecule=CCO/N=C(\c1cccc(Cl)c1)c1c(O)c(C)nn(C)c1=O reported_measurement=20
molecule="CON=C(c1cccc(C(F)(F)F)c1Cl)c1c(O)c(C)nn(C)c1=O [Compound 102]" reported_measurement=40
molecule=CO/N=C(\c1cccc(C#N)c1)c1c(O)c(C)nn(C)c1=O reported_measurement=0
molecule=CO/N=C(/c1cc(Cl)ccc1C(F)(F)F)c1c(O)c(C)nn(C)c1=O reported_measurement=60
molecule=CCn1nc(C)c(O)c(/C(=N/OC)c2cccc(C)c2)c1=O reported_measurement=0
molecule=CON=C(c1ccccc1C1CC1)c1c(O)c(C)nn(C)c1=O reported_measurement=80
molecule=CON=C(c1c(O)c(C)nn(C)c1=O)c1cccc2ccoc12 reported_measurement=0
molecule=CO/N=C(\c1ccc(F)cc1C)c1c(O)c(C)nn(C)c1=O reported_measurement=0
molecule=CON=C(c1c(O)c(C)nn(C)c1=O)c1ccc(Cl)c2ccccc12 reported_measurement=70
molecule=Cc1ccccc1/C(=N\OC(C)C)c1c(O)c(C)nn(C)c1=O reported_measurement=70
molecule=Cc1nn(C)c(=O)c(/C(=N/OC(C)C)c2ccc(F)c3ccccc23)c1O reported_measurement=90

----------
# Test system: kochia (Kochia scoparia)
# MEASUREMENT NOTES: Test A preemergence, visual plant response rating
# Assay type: in vivo
# MEASUREMENT SETUP: 500 g ai/ha Preemergence; approx. 10 days
PARAMETER: Kochia plant response rating (0 to 100 scale)

compound="CON=C(c1c(O)c(C)nn(C)c1=O)c1csc2ccccc12 (single isomer, unassigned) [Compound 46]" reported_measurement=30
compound="CO/N=C(\\c1ccccc1C(C)C)c1c(O)c(C)nn(C)c1=O [Compound 94]" reported_measurement=10
compound="CON=C(c1sccc1C)c1c(O)c(C)nn(C)c1=O [Compound 134]" reported_measurement=50
compound="CON=C(c1cc(Cl)ccc1C)c1c(O)c(C)nn(C)c1=O [Compound 65]" reported_measurement=30
compound="CON=C(c1cc(Cl)ccc1Cl)c1c(O)c(C)nn(C)c1=O [Compound 90]" reported_measurement=70
compound="C#CCO/N=C(/c1c(O)c(C)nn(C)c1=O)c1cccc2ccccc12 [Compound 82]" reported_measurement=80
compound="CON=C(c1c(O)c(C)nn(C)c1=O)c1csc2ccccc12 (single isomer, unassigned) [Compound 45]" reported_measurement=50
compound="CCc1cccc(C(=NOC)c2c(O)c(C)nn(C)c2=O)c1 [Compound 36]" reported_measurement=50
